System: MCF7 breast
Assay: NCI tumour cell line growth inhibition, 48 h; in the data active = GI50 below about 0.43 µM; inactive = the rest
Just give me one of these, please: active, inactive

Answered cases to consult:
>  <Sample Smiles>
Cn1c(=O)cc2c3c(c(NCCCO)ccc31)C(=O)c1ccccc1-2

>  <Label Value>
inactive

$$$$
>  <Sample Smiles>
COc1ccc2[nH]cc(-c3nc(-c4cn(C)c5ccncc45)cs3)c2c1

>  <Label Value>
inactive

$$$$

State the result this test recorded for O=C1/C(=C/c2ccccc2Cl)N=C(c2ccccc2)N1Cc1ccco1 . inactive

State the result this test recorded for CS(=O)(=O)CCNCc1ccc(-c2ccc3ncnc(Nc4ccc(OCc5cccc(C(F)(F)F)c5)cc4)c3c2)o1 . inactive

State the result this test recorded for O=C(COc1cccc(/C=C2\COc3ccccc3C2=O)c1)Nc1nccs1 . inactive

State the result this test recorded for CCCN(CCC)c1ccc(CO)c(C)c1 . inactive

State the result this test recorded for COc1ccc2c(c1)CC[C@@H]1[C@@H]2CC[C@@]2(C)[C@H]1CC1(CCCCC1)[C@@H]2O . inactive

State the result this test recorded for CCc1c2c(nc3cc4c(cc13)OCO4)-c1cc3c(c(=O)n1C2)COC(=O)[C@@]3(CC)OC(=O)CN . active

State the result this test recorded for CC(=O)/C=C/C1=C(c2cc3ccccc3s2)c2ccccc2CC1 . inactive
